Cited source for all entries: ChEMBL document CHEMBL1123349

Quick reference: Ki of the listed items.
# Study Target: Adenosine A2 receptor (Rattus norvegicus, UniProt P29276+P30543)
# Assay: Binding affinity against A2 adenosine receptors of the central nervous system
# Format: protein assay
Response body: numeric value in nM, unit text excluded.

| Chemical String | Unit Info | Numeric Value |
| --- | --- | --- |
| CCCn1c(=O)c2nc(-c3ccc(O)c(Cl)c3)[nH]c2n(CCC)c1=O | nM | 140 |
| CCCn1c(=O)c2nc(-c3ccc(F)cc3F)[nH]c2n(CCC)c1=O | nM | 290 |

Pending molecule:
Prompt: Given the entry `CCCn1c(=O)c2nc(-c3cc(O)ccc3O)[nH]c2n(CCC)c1=O` , report its measured Ki.
Response: 3500
